Overview of recorded protein stability index for various sequences
experiment: protein stability index of a GFP-peptide fusion (GPS, HEK-293T) (PSI 1-6); higher = more stable; conditions: treatment: MLN4924 1 uM, 8 h; c terminus: a fixed tail appended;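 note: 24-mer peptide tiles fused after GFP, lentivirally expressed, FACS-sorted into six equal bins by GFP/DsRed ratio, decoded by Illumina sequencing, PSI is the read-weighted mean bin number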

>  <Sequence string>
KFKGWVSYSTSEQAELSYKKVSEG [DLC1]

>  <protein stability index>
3.54

$$$$
>  <Sequence string>
LKIELETYKLKCKALQEENRDLRK [CCDC6]

>  <protein stability index>
4.63

$$$$
>  <Sequence string>
AEGVVLSDSPDAADSTSFDVQLGD [PPTC7]

>  <protein stability index>
5.64

$$$$
>  <Sequence string>
TMGMGMPNIAMTSGTVQPKQDAFA [CLINT1]

>  <protein stability index>
3.98

$$$$
>  <Sequence string>
KPKTTNIELQGVPNDEVHPLLGVK [RBBP5]

>  <protein stability index>
4.75

$$$$
>  <Sequence string>
GARQQQVTTYLHKDYNNLWIIKKH [POMT2]

>  <protein stability index>
2.58

$$$$
>  <Sequence string>
KNTFEFLKENNFQPYPLPHVRHMA [CLK3]

>  <protein stability index>
2.51

$$$$
>  <Sequence string>
RIIPNFYPPLEGHVRQGVFSSLNH [INTS3]

>  <protein stability index>
2.3

$$$$
>  <Sequence string>
LEALIDTIQKQLKDHSCKDNIREA [EFHC1]

>  <protein stability index>
3.65

$$$$
>  <Sequence string>
DSFVCQCSEGFLINEDLKTCSRVD [MATN2]

>  <protein stability index>
3.9

$$$$
>  <Sequence string>
EYRQRRERNNIAVRKSRDKAKRRN [CEBPD]

>  <protein stability index>
4.43

$$$$
>  <Sequence string>
HSKLTDREKTNICYLSFPDSNSGC [DENND6A]

>  <protein stability index>
3.39

$$$$
>  <Sequence string>
LLKDKVRERIQILKTSEVTQHLPR [PTPN9]

>  <protein stability index>
2.99

$$$$
>  <Sequence string>
APELVERVQSVDFMRTDPVCQKLL [KLHL14]

>  <protein stability index>
4.12

$$$$
>  <Sequence string>
YEDTNGQPQALLVDGDQSKILISG [TNXB]

>  <protein stability index>
4.73

$$$$
>  <Sequence string>
AAAIIVYDITKEETFSTLKNWVKE [RAB22A]

>  <protein stability index>
1.95

$$$$
>  <Sequence string>
KEIESQGSIPGFLISSGMSSHKQG [TAF7L]

>  <protein stability index>
4.11

$$$$
>  <Sequence string>
GVGFATRKVAGMAKPNMIISVNGD [FABP4]

>  <protein stability index>
3.04

$$$$
>  <Sequence string>
IVSLLLGTIHALIFAWNKWIDIKQ [STEAP1]

>  <protein stability index>
2.17

$$$$
>  <Sequence string>
SLQDASRGDPAHAGLAELGHRLAQ [PBXIP1]

>  <protein stability index>
4.38

$$$$
>  <Sequence string>
VNARQKQGIYEEYEDIRRENPVGT [PTPN9]

>  <protein stability index>
4.96

$$$$
>  <Sequence string>
SKEKDTQNQNITLDCEGTTNKMKS [KMT2E]

>  <protein stability index>
5.28

$$$$
>  <Sequence string>
FGLSILWVLLFTPCSFVCWYRPMY [SCAMP3]

>  <protein stability index>
3.48

$$$$
>  <Sequence string>
VLKVLSVCSSNKPAIVEAGGMQAL [CTNNB1]

>  <protein stability index>
2.46

$$$$
>  <Sequence string>
EVWGNALLRPPVAAFVRAQADLLA [DNAAF3]

>  <protein stability index>
2.02

$$$$
>  <Sequence string>
GATTLGDMIYVSGGFDGSRRHTSM [KLHL12]

>  <protein stability index>
3.02

$$$$
>  <Sequence string>
VHRLDLILCNKTAYQEVFKPENIS [SMG5]

>  <protein stability index>
2.15

$$$$
>  <Sequence string>
SGAGRRKNATRETTSTLKAWLNEH [IRX6]

>  <protein stability index>
3.58

$$$$
>  <Sequence string>
MMRREDEEEEGTMMKAKGDLEMKE [ZBED2]

>  <protein stability index>
5.64

$$$$
>  <Sequence string>
AHEIERLQMEMKEDDVSFLMKHKS [TRIM35]

>  <protein stability index>
4.67

$$$$
>  <Sequence string>
PTHPSSTHALAEWASRREAFAQRP [CDC25B]

>  <protein stability index>
3.91

$$$$
>  <Sequence string>
ICDLARSIDFNKDGHIDINEFLEA [PPEF2]

>  <protein stability index>
4.04

$$$$
>  <Sequence string>
KLKESTVRRRYSDFEWLRSELERE [SNX3]

>  <protein stability index>
3.13

$$$$
>  <Sequence string>
PKAKAKAKAKAKDQTKAQAAAPAS [RPL29]

>  <protein stability index>
5.21

$$$$
>  <Sequence string>
FQEAQIKRKARNEGRNRRRQQVLP [CDKL4]

>  <protein stability index>
4.08

$$$$
>  <Sequence string>
PCAGSTSLSHSPGCSSTQGNGRPG [LCOR]

>  <protein stability index>
4.16

$$$$
>  <Sequence string>
GKVLQNKQAEICQLEEKLEIANED [CCDC89]

>  <protein stability index>
5.44

$$$$
>  <Sequence string>
LDRHQLPLDDALLSFAHANCTLII [DPCD]

>  <protein stability index>
2.63

$$$$
>  <Sequence string>
TAISSFTRHVFTCGRRGIKVWSLT [TLE6]

>  <protein stability index>
2.16

$$$$
>  <Sequence string>
YSYVVSRPQPRGLLGWGYYLIMLP [FAF2]

>  <protein stability index>
2.16

$$$$
>  <Sequence string>
PLPAGSLPPYPPYFEGAPFPHPLW [PWWP2B]

>  <protein stability index>
2.64

$$$$
>  <Sequence string>
GKDQGINIRQKVKELVEFAQDDDR [CLINT1]

>  <protein stability index>
4.91

$$$$
>  <Sequence string>
YDGMLSDVQSMPKTGILILILSII [MAGEA10]

>  <protein stability index>
2.12

$$$$
>  <Sequence string>
ELLWKLQTGDPTSPIKLSPTSPVY [MTUS2]

>  <protein stability index>
2.36

$$$$
>  <Sequence string>
EDFSLPAYMDRRDHPLPEVAHVKH [COX4I1]

>  <protein stability index>
4.59

$$$$
>  <Sequence string>
ISSVLAGGSCRAPSTYGGGLSVSS [KRT16]

>  <protein stability index>
2.27

$$$$
>  <Sequence string>
ESTLYPNPYHQPYISRKYFATRPG [TPRG1]

>  <protein stability index>
3.03

$$$$
>  <Sequence string>
PREHHGRGGMLSASAETLPAGFRV [PPFIA4]

>  <protein stability index>
3.95

$$$$
>  <Sequence string>
TDLEMQIEGLKEELAYLRKNHEEE [KRT16]

>  <protein stability index>
5.45

$$$$
>  <Sequence string>
LPLAEREHVSRALCIHTGRELRCK [TRIB1]

>  <protein stability index>
3.93

$$$$
>  <Sequence string>
TQIEDATEKLKANAESSKTWLKGK [TRIM14]

>  <protein stability index>
5

$$$$
>  <Sequence string>
GTASSGSSRLPQPSGAGKTVVGVP [ZC2HC1A]

>  <protein stability index>
4.72

$$$$
>  <Sequence string>
RGNRLKTTSWGLLSLGALVALCWQ [SCNN1D]

>  <protein stability index>
2.16

$$$$
